- Test system: human APOE RNA
- PROTOCOL_TEXT: Duration of action study in APOE C57BL/6NTac-Apoeem7250 knock-in mice (Example 16)
- Assay type: in vivo
- TEST_PARAMETERS: spinal cord; 300 μg ICV; 14 days post-dose
- Description: Modified oligonucleotides described above were tested in the APOE C57BL/6NTac-Apoeem7250 knock-in mouse model described above. APOE C57BL/6NTac-Apoeem7250 knock-in mice were divided into groups of 2-4 mice each. […] Mice were sacrificed at various timepoints as indicated in the table below and RNA was extracted from cortical brain tissue and spinal cord for quantitative real-time RT-PCR analysis of RNA expression of APOE using primer probe set RTS3073 (described herein above). […]
Strand notation (5' to 3'): a small letter for the sugar, then the base; units joined by * are phosphorothioate-linked, units joined directly phosphodiester-linked; [ ] holds rarer units or linkages, { } end groups; capitals alone tell only the bases. [PN] = cyclic guanidine phosphoramidate internucleoside linkage; [ms] = mesyl phosphoramidate linkage; e = 2'-O-(2-methoxyethyl) (MOE); k = constrained ethyl (cEt); [5mC] = 5-methylcytosine; d = 2'-deoxy (DNA)
MEASUREMENT_LABEL: APOE RNA (% control) Spinal Cord

SUBSTANCE	APOE RNA (% control) Spinal Cord
1721303: 6-10-4 MOE gapmer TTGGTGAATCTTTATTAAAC, linkages s[pn][pn][pn]oossssssssssoss (eT*eT[PN]eG[PN]eG[PN]eTeGdA*dA*dT*d[5mC]*dT*dT*dT*dA*dT*dT*eAeA*eA*e[5mC]) [compound 1721303]	32 % control
^mCksTksTksGdzGdzTdzGdzAdzAdzTds^mCdsTdsTdsTdsAdsTdsTksAksAdzAk (antisense k[5mC]*kT*kT*dG[ms]dG[ms]dT[ms]dG[ms]dA[ms]dA[ms]dT*d[5mC]*dT*dT*dT*dA*dT*kT*kA*dA[ms]kA) [Compound No. 1785602]	28 % control
TezTeoGeoGksTdsGdzAdzAdzTds^mCdsTdsTdsTdsAdzTksTksAesAesAes^mCe (antisense eT[ms]eTeGkG*dT*dG[ms]dA[ms]dA[ms]dT*d[5mC]*dT*dT*dT*dA[ms]kT*kT*eA*eA*eA*e[5mC]) [Compound No. 1809814]	53 % control
1652902: 6-10-4 MOE gapmer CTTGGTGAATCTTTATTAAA, linkages sooooossssssssssoss (antisense e[5mC]*eTeTeGeGeTdG*dA*dA*dT*d[5mC]*dT*dT*dT*dA*dT*eTeA*eA*eA) [compound 1652902]	27 % control
1721306: 6-10-4 MOE gapmer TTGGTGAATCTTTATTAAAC, linkages s[pn][pn][pn]oosssssszzss[n]ss (as printed) (sugars from the 5' end e6 d10 e4, all C 5-methyl, backbone not given here; further chemistry not fully specified) [compound 1721306]	63 % control

Would you mind giving APOE RNA (% control) Spinal Cord for every substance in the list below?
1. 1721307: 6-10-4 MOE gapmer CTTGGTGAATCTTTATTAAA, linkages s[pn][pn][pn]oossssssssssoss (e[5mC]*eT[PN]eT[PN]eG[PN]eGeTdG*dA*dA*dT*d[5mC]*dT*dT*dT*dA*dT*eTeA*eA*eA) [compound 1721307]
2. 1721309: 6-10-4 MOE gapmer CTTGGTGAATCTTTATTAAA, linkages s[pn][pn][pn]oossssssssss[pn]ss (e[5mC]*eT[PN]eT[PN]eG[PN]eGeTdG*dA*dA*dT*d[5mC]*dT*dT*dT*dA*dT*eT[PN]eA*eA*eA) [compound 1721309]

Reply:
1. 31 % control
2. 34 % control

Ask: Could you share which APOE RNA (% control) Spinal Cord value was measured for Aks^mCeoTeoTesGesGksTdsGdzAdzAdzTds^mCdsTdsTdsTdsAdzTksTksAesAe (kA*e[5mC]eTeT*eG*kG*dT*dG[ms]dA[ms]dA[ms]dT*d[5mC]*dT*dT*dT*dA[ms]kT*kT*eA*eA) [Compound No. 1809635] ?
Reply: 27 % control
